target: human GHSR1a (Homo sapiens, UniProt Q92847); construct: expressed in transfected cells; host or cells: HEK293 Tetracycline-Inducible cell line, used as membranes; test: Human Ghrelin SPA Binding Assay
Sequence (Q92847 whole entry): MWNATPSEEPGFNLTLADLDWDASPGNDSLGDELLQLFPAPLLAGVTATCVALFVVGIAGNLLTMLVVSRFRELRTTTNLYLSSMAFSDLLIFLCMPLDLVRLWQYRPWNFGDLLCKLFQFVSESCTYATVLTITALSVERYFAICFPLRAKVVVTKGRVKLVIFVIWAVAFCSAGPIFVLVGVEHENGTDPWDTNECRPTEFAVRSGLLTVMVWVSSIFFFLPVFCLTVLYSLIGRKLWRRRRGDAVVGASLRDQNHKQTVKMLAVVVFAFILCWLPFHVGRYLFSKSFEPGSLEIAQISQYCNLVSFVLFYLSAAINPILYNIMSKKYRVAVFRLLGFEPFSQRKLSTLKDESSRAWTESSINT
pIC50: −log10 of the molar value.
reported_endpoint: pIC50

NC(=O)c1cnc(-c2ccc3c(c2)CC[C@H]3N2CC3(CCN(C(=O)Cc4cn5ccccc5n4)CC3)C2)cn1 [Example 10C]; 7.03
COc1ccc(CC(=O)N2CCC3(CC2)CN([C@@H]2CCc4cc(-c5ccc(C(N)=O)nc5)ccc42)C3)nc1 [Example 9B]; 7.26

I. COc1ccc(CC(=O)N2CCC3(CC2)CN([C@@H]2CCc4cc(-n5cncn5)ccc42)C3)nc1 [Example 6I]
II. COc1ccc(CC(=O)N2CCC3(CC2)CN([C@@H]2CCc4cc(-n5cccn5)ccc42)C3)nc1 [Example 8C]
III. N#Cc1cc(-c2ccc3c(c2)CC[C@H]3N2CC3(CCN(C(=O)Cc4ccc(C5CC5)cn4)CC3)C2)ncn1 [Example 3AZ]
Arrange by pIC50, high to low. Give me the labels in the order the question wants.
III, II, I

I. COc1ccc(CC(=O)N2CCC3(CC2)CN([C@@H]2CCc4cc(-c5ccn(C)n5)ccc42)C3)nc1 [Example 3N]
II. Cc1nccc(-c2ccc3c(c2)CC[C@H]3N2CC3(CCN(C(=O)Cc4ccc5c(n4)OCCO5)CC3)C2)n1 [Example 3E]
Compare I and II and name the one whose reported pIC50 is smaller. Lab note: record the label of whichever item you select.
I
(I: 7.08, II: 7.68)

###

target: human GHSR1a (Homo sapiens, UniProt Q92847); construct: expressed in transfected cells; host or cells: HEK293 Tetracycline-Inducible cell line, used as membranes; experiment: Human Ghrelin SPA Binding Assay
reported_endpoint: IC50 (nM)

For orientation, consider the following solved cases.
COc1ccc(CC(=O)N2CCC3(CC2)CN(C2CCc4cc(-c5cccc(C)n5)ccc42)C3)nc1 (racemic) [Example 2J]; 22
COc1ccc(CC(=O)N2CCC3(CC2)CN([C@@H]2CCc4cc(-c5ncco5)ccc42)C3)nc1 [Example 3AG]; 40.1
Cc1ccn2cc(CC(=O)N3CCC4(CC3)CN([C@@H]3CCc5cc(-n6nccn6)ccc53)C4)nc2c1 [Example 6C]; 37.2
O=C(Cc1ccc(C2CC2)cc1)N1CCC2(CC1)CN([C@@H]1CCc3cc(-c4ncccn4)ccc31)C2 [Example 5A-1]; 4.5
COc1ccc(CC(=O)N2CCC3(CC2)CN(C2CCc4cc(-c5ccnc(C)c5)ccc42)C3)nc1 (racemic) [Example 2B]; 6.75

a. COc1ccc(CC(=O)N2CCC3(CC2)CN([C@@H]2CCc4cc(-c5cnc(C(N)=O)cn5)ccc42)C3)nc1 [Example 10A]
b. Cc1ccn2cc(CC(=O)N3CCC4(CC3)CN([C@@H]3CCc5cc(-c6ccc(C(N)=O)nc6)ccc53)C4)nc2c1 [Example 9F]
# compare IC50 for a vs b ; return the one with the smaller value Field: selected label. Fill in the label of the entry you choose.
b

###

Biological target: human GHSR1a (Homo sapiens, UniProt Q92847)
Construct: expressed in transfected cells; host or cells: HEK293 Tetracycline-Inducible cell line, used as membranes
Test: Human Ghrelin SPA Binding Assay
Excerpt: The SPA format was utilized for high throughput screening of test compounds and filter binding served for more comprehensive binding characterization. Human Ghrelin SPA Binding Assay
pIC50: −log10 of the molar value.
reported_endpoint: pIC50

P. CCc1cc(-c2ccc3c(c2)CC[C@H]3N2CC3(CCN(C(=O)Cc4ccc(OC)cn4)CC3)C2)ncn1 [Example 3AA]
Q. Cc1ccnc(-c2ccc3c(c2)CCC3N2CC3(CCN(C(=O)Cc4cn5cc(C)sc5n4)CC3)C2)n1 (stereo not shown) [Example 1K]
Hey, which is lower on measured pIC50, P or Q ? When you have decided, please share the label of that item.
Q

Measured values drawn from patent US8609680B2 for this set.
